Biological target: Full-length PRMT5 enzyme (NCBI Reference sequence NP_006100.2) co-expressed with His6-MEP50 (Homo sapiens (Human))
Assay: PRMT5 Biochemical Assay
Conditions: 200 nM peptide substrate, 1 μM S-Adenosyl methionine, 4 hours at 37° C., Transcreener EPIGEN fluorescence polarisation
Protocol: Compounds of the invention may be tested for in vitro activity in the following assay: A histone H4 derived peptide is used as substrate (amino acid sequence: […]N H2). […] The 6 μL assay reactions are run in Greiner brand black 384-well low volume plates. […] To each reaction 2 μL detection mix were added, containing coupling enzymes, fluorescence polarisation tracer, and AMP antibody. […]
Where a name gives a salt, the structure may show the parent alone.
Recorded IC50 by entry

Compound: O=C(NC[C@H](O)[C@H]1Cc2ccccc2CN1)c1ccc(C(=O)N2CCOCC2)cc1 [Example 53, hydrochloride]
IC50: 22 µM
--
Compound: O=C(NCC(O)CC1Cc2ccccc2CN1)c1ccc(C(=O)N2CCOCC2)cc1 (stereo not drawn)
IC50: 4.69 µM
--
Compound: O=C(NCC(O)C1Cc2ccccc2CN1)c1ccc(C(=O)N2CCOCC2)cc1 (stereo not drawn)
IC50: 0.763 µM

###

tested on: symmetrical dimethylation of arginine (Di-Methyl Histone H4 Arginine 3) in cell line TE11; experiment: Revised PRMT5 Biomarker Assay (Di-Methyl Histone H4 Arginine 3 immunofluorescence); format: cell-based; conditions: Homo sapiens, TE-11; TE11 cells, 72 hours, PerkinElmer Envision fluorescence intensity, corrected for Hoechst 33342; read-out: IC50 - plate-reader based
Counter-ions that a name gives are not always drawn.
Recorded IC50 by entry

Compound: O=C(NC[C@@H](O)[C@@H]1Cc2ccccc2CN1)c1ccc(C(=O)N2CCOCC2)cc1 [Example 28, hydrochloride]
Tgt: symmetrical dimethylation of arginine (Di-Methyl Histone H4 Arginine 3) in cell line TE11
IC50, nM: 12

Compound: CCOc1cc(C(=O)N2C3CCCC2COC3)ccc1C(=O)NC[C@@H](O)[C@@H]1Cc2ccccc2CN1
Tgt: symmetrical dimethylation of arginine (Di-Methyl Histone H4 Arginine 3) in cell line TE11
IC50, nM: 0.4

Compound: O=C(NC[C@@H](O)[C@@H]1Cc2ccccc2CN1)c1ccc(C(=O)N2CCOCC2)cc1F
Tgt: symmetrical dimethylation of arginine (Di-Methyl Histone H4 Arginine 3) in cell line TE11
IC50, nM: 23

Compound: O=C(NC[C@@H](O)[C@@H]1Cc2ccccc2CN1)c1ccc2nc(C(F)(F)F)[nH]c2c1 [Example 84, dihydrochloride]
Tgt: symmetrical dimethylation of arginine (Di-Methyl Histone H4 Arginine 3) in cell line TE11
IC50, nM: 81

###

target: Full-length PRMT5 enzyme (NCBI Reference sequence NP_006100.2) co-expressed with His6-MEP50 (Homo sapiens (Human), UniProt O14744); assay: Revised PRMT5 Biochemical Assay; settings: 1 μM peptide substrate, 1 μM S-Adenosyl methionine, 4 hours at 37 degree Celsius, Transcreener EPIGEN fluorescence polarisation
Sequence (O14744 whole entry): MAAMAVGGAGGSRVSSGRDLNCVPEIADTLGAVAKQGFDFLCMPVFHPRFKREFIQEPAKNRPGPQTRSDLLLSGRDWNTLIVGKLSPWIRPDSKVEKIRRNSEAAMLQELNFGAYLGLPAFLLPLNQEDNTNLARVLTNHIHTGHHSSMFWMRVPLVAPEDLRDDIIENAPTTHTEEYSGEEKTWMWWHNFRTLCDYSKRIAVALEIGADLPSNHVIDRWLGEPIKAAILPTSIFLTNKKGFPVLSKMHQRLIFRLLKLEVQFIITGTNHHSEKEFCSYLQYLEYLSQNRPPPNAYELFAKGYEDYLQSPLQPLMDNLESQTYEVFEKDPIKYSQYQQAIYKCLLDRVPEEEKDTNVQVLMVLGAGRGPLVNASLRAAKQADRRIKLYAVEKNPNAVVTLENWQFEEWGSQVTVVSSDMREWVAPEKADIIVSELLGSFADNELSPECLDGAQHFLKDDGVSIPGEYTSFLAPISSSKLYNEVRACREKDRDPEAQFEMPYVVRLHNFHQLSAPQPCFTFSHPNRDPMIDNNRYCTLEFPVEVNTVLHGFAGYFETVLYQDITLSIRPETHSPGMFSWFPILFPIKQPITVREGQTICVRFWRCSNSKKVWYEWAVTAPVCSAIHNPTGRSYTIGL
Sequence (Q9BQA1 whole entry partner): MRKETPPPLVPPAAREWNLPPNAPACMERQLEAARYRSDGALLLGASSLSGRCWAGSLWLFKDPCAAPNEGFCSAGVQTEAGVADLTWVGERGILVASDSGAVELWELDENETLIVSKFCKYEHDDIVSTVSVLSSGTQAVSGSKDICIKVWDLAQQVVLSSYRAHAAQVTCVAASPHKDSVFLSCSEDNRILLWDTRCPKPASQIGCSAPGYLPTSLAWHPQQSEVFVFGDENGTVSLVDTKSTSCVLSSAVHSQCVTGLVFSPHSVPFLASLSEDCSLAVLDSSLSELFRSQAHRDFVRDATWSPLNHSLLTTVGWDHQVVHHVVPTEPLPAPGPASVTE
pIC50: −log10 of the molar value. Where a name gives a salt, the structure may show the parent alone.

Compound: O=C(NC[C@@H](O)[C@@H]1Cc2ccccc2CN1)c1ccc(C(=O)NC2CCS(=O)(=O)CC2)cc1
pIC50: 5.01
--
Compound: O=C(NC[C@@H](O)[C@@H]1Cc2ccccc2CN1)c1coc(-c2ccccc2)n1
pIC50: 5.63
--
Compound: O=C(NC[C@@H](O)[C@@H]1Cc2ccccc2CN1)c1ccc(C(=O)N2C3CCC2CC(O)C3)cc1 (stereo partly drawn)
pIC50: 6.67
--
Compound: O=C(NC[C@@H](O)[C@@H]1Cc2ccccc2CN1)c1ccc(C(=O)N2CCC(C(F)F)CC2)cc1
pIC50: 6.64
--
Compound: O=C(NC[C@@H](O)[C@@H]1Cc2ccccc2CN1)c1ccnc(OCC(F)(F)F)c1
pIC50: 6.61
--
Compound: CCOc1nc(C(=O)N2C3CCC2COC3)ccc1C(=O)NC[C@@H](O)[C@@H]1Cc2ccccc2CN1
pIC50: 6.92
--
Compound: O=C(NC[C@H](O)[C@@H]1Cc2ccccc2CN1)c1ccc(C(=O)N2CCOCC2)cc1 [Example 52, hydrochloride]
pIC50: 5.48
--
Compound: CC(C)OC(=O)N1CCC(Oc2cc(C(=O)NC[C@@H](O)[C@@H]3Cc4ccccc4CN3)ccn2)CC1
pIC50: 6.98
--
Compound: CC(=O)N1CCN(C(=O)c2ccc(C(=O)NC[C@@H](O)[C@@H]3Cc4ccccc4CN3)cc2)CC1
pIC50: 6.48
--
Compound: CC(=O)N1CCC(Oc2cc(C(=O)NC[C@@H](O)[C@@H]3Cc4ccccc4CN3)ccn2)CC1
pIC50: 7.17
--
Compound: O=C(NC[C@@H](O)[C@@H]1Cc2ccccc2CN1)c1ccncc1 [Example 77, dihydrochloride]
pIC50: 5.06
--
Compound: NC(=O)COc1ccccc1C(=O)NC[C@@H](O)[C@@H]1Cc2ccccc2CN1
pIC50: 5.64
--
Compound: CCOc1cc(CC(=O)N2CCCC2)ccc1C(=O)NC[C@@H](O)[C@@H]1Cc2ccccc2CN1 [Example 79, hydrochloride]
pIC50: 6.77
--
Compound: O=C(NC[C@@H](O)[C@@H]1Cc2ccccc2CN1)c1cccc2c1ncn2C1CCOCC1 [Example 117, dihydrochloride]
pIC50: 6.31
--
Compound: COC1CCN(C(=O)c2ccc(C(=O)NC[C@@H](O)[C@@H]3Cc4ccccc4CN3)cc2)CC1
pIC50: 6.51
--
Compound: COc1cc(C(=O)N2C3CCC2COC3)ccc1C(=O)NC[C@@H](O)[C@@H]1Cc2ccccc2CN1 [Example 87, hydrochloride]
pIC50: 7.24
--
Compound: CC(C)Oc1cc(C(=O)NC[C@@H](O)[C@@H]2Cc3ccccc3CN2)ccn1
pIC50: 6.58
--
Compound: O=C(NC[C@@H](O)[C@@H]1Cc2ccccc2CN1)c1ccc(C(=O)N2CCOCC2)cc1F
pIC50: 6.42
--
Compound: O=C(NC[C@@H](O)[C@@H]1Cc2ccccc2CN1)c1ccnc(OC2CCOCC2)c1 [Example 26, trifluoroacetic acid) salt]
pIC50: 7.28
--
Compound: O=C(NC[C@@H](O)[C@@H]1Cc2ccccc2CN1)c1ccc(C(=O)N2CCOCC2)cc1 [Example 28, hydrochloride]
pIC50: 6.74
--
Compound: O=C(NC[C@@H](O)[C@@H]1Cc2ccccc2CN1)c1ccc(OC2CCNCC2)nc1 [Example 99, trihydrochloride]
pIC50: 6.90
--
Compound: O=C(NC[C@@H](O)[C@@H]1Cc2ccccc2CN1)c1ccccc1C(F)F
pIC50: 5.29
--
Compound: O=C(NC[C@@H](O)[C@@H]1Cc2ccccc2CN1)c1ccccc1Cl
pIC50: 5.06
--
Compound: COC1CC2CCC(C1)N2C(=O)c1ccc(C(=O)NC[C@@H](O)[C@@H]2Cc3ccccc3CN2)cc1 (stereo partly drawn)
pIC50: 6.22
--
Compound: O=C(NC[C@@H](O)[C@@H]1Cc2ccccc2CN1)c1csc(-c2ccccc2)n1
pIC50: 6.18
--
Compound: O=C(NC[C@@H](O)[C@@H]1Cc2ccccc2CN1)c1ccc(C(=O)N2CCC(O)(C(F)F)CC2)cc1
pIC50: 6.86
--
Compound: O=C(NC[C@@H](O)[C@@H]1Cc2ccccc2CN1)c1ccc(C(=O)N2CCCCO2)cc1
pIC50: 6.12
--
Compound: COC(=O)N1CCN(C(=O)c2ccc(C(=O)NC[C@@H](O)[C@@H]3Cc4ccccc4CN3)cc2)CC1
pIC50: 6.51
--
Compound: CC(=O)N1CCC(Nc2cc(C(=O)NC[C@@H](O)[C@@H]3Cc4ccccc4CN3)ncn2)CC1
pIC50: 7.21
--
Compound: CC(C)COC(=O)N1CCC(Oc2cc(C(=O)NC[C@@H](O)[C@@H]3Cc4ccccc4CN3)ccn2)CC1
pIC50: 6.99
